# System tested: GABA-A receptor; anion channel
# Measurement description: Inhibition of [3H]-Ro- 15-1788 binding to GABA-A benzodiazepine receptor of bovine brain membranes
Reported Ki values for a set of compounds
Answer with the value and then the unit.

Example entries begin here.
>>> print(df.to_string())
                               entry_smiles  value_measured
0  COc1ccc(NNC(=O)C(=O)c2c[nH]c3ccccc23)cc1          430 nM
1   Cc1ccc(NNC(=O)C(=O)c2c[nH]c3ccccc23)cc1          290 nM
2  Cn1cc(C(=O)C(=O)NNc2ccc([N+](=O)[O-])cc2)c2ccccc21          455 nM
3      Cn1cc(C(=O)C(=O)NNc2ccccc2)c2ccccc21         1200 nM
4   O=C(NNc1ccc(F)cc1)C(=O)c1c[nH]c2ccccc12           57 nM

Assay GABA-A receptor; anion channel, sample `O=C(NNc1ccc(Cl)cc1)C(=O)c1c[nH]c2ccccc12` , Ki read: 62 nM

Assay GABA-A receptor; anion channel, sample `O=C(NNc1ccc([N+](=O)[O-])cc1)C(=O)c1c[nH]c2ccccc12` , Ki read: 11 nM

Assay GABA-A receptor; anion channel, sample `O=C(NNc1ccc(O)cc1)C(=O)c1c[nH]c2ccccc12` , Ki read: 3400 nM

Assay GABA-A receptor; anion channel, sample `Cc1cccc(NNC(=O)C(=O)c2c[nH]c3ccccc23)c1` , Ki read: 510 nM

Assay GABA-A receptor; anion channel, sample `CN(NC(=O)C(=O)c1c[nH]c2ccc([N+](=O)[O-])cc12)c1ccccc1` , Ki read: 2400 nM

Assay GABA-A receptor; anion channel, sample `O=C(NNc1ccccc1)C(=O)c1c[nH]c2ccccc12` , Ki read: 203 nM
